# TESTED ON: SHP-1 C453S catalytic domain (residues 243–530) (human, UniProt P29350 243-530, C453S)
# Sequence (P29350 243-530 C453S): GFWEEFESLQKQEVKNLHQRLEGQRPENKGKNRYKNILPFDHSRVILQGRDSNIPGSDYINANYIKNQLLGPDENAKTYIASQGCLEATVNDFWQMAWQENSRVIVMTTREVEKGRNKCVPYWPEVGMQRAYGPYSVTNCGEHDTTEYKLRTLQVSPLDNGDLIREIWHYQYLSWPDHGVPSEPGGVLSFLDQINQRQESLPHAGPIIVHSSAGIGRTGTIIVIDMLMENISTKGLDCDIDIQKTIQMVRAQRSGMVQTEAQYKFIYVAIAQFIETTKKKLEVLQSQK
# TEST NAME: ITC
Square brackets hold non-standard residues; d marks the D form. Ends that are not written are not given here. pY = N[C@@H](Cc1ccc(OP(=O)(O)O)cc1)C(=O)O
READOUT TYPE: pKd
One number for each entry, as −log10 of the molar value.

Q: Record request: pKd value, item ETDKE[pY]YTVKD [JAK1 activation loop phosphopeptide E1029TDKEpYYTVKD]
A: 4.87

The reported numbers originate from paper PMC3578099.
